endpoint.name: melting point

C=CCNc1nc(NCCC)nc2c(C)csc12 ... 74 to 75 °C
O=C1c2c(-c3ccccc3F)noc2CCC1CCCN1CCN(C(c2ccc(F)cc2)c2ccc(F)cc2)CC1 (stereo unspecified) ... 95 to 97 °C
OC(CCCCCOCc1ccccc1)c1cccc(OCc2ccc3ccccc3n2)c1 (stereo unspecified) ... 86 to 89 °C
CCOC(=O)c1cn(C)nc1C(F)F ... 43 to 46 °C

GET /value?item= CC1(C)OCCC2N1C(=O)C2(Sc1ccccc1)C1(O)CCSCC1 (stereo unspecified) &field=melting point returns 191 to 192 °C

GET /value?item= "CCOC(=O)CCCCn1c(=O)[nH]c2ccc(O)cc2c1=O" &field=melting point returns 105 to 107 °C

GET /value?item= "O=[N+]([O-])c1cccc(O)c1O" &field=melting point returns 82 to 85 °C

GET /value?item= "CCOCCn1c(C(=O)C2CCN(C(=O)OC(C)(C)C)CC2)nc2ccccc21" &field=melting point returns 96 to 98 °C

GET /value?item= "O=C(Cn1c(-c2ccc(Cl)cc2)nc2cccnc21)N1CCCC1" &field=melting point returns 224 to 225 °C

GET /value?item= "Cc1nc2cccc(OCC(C)(C)C(=O)NC(C)C)c2c(N)c1C(=O)O" &field=melting point returns 216 to 218 °C

GET /value?item= "CC[C@H](CO)Nc1nc(Nc2ccccn2)c2ncn(C(C)C)c2n1" &field=melting point returns 30 to 35 °C

====

endpoint.name: melting point

The following compounds have reported results that may help.
CCN(CC)c1ccc(/C=C/C(=O)CC(=O)/C=C/c2ccc3cc[nH]c3c2)c(OCc2ccccn2)c1 ... 92 to 96 °C
CN(C)c1cccc(-n2cc(C(=O)NC(=N)N)c3cccnc32)c1 ... 269 to 271 °C
CCOC(=O)c1sc(=O)[nH]c1-c1cccc(C(F)(F)F)c1 ... 168 to 171 °C
CCC(=O)NCC(CCO)c1cccc2ccc(OC)cc12 (stereo not drawn) ... 123 to 125 °C
COC(=O)CCc1cc2cc(C(F)(F)F)ccc2n1S(=O)(=O)c1cccc2nc(C)sc12 ... 106 to 108 °C
Cc1cc(Sc2ccccc2)ccc1N ... 64 to 65 °C
Cc1cc(C)c2cccc(OCc3c(Cl)ccc(S(=O)(=O)N4CCC[C@H]4C(=O)NCCCNC(=O)c4cccc(C(N)=NO)c4)c3Cl)c2n1 ... 108 to 110 °C
Cc1nn(-c2ccccn2)cc1COc1ccc(CO)cc1 ... 83 to 84 °C
Cc1cn(C2CC(O)C(CO)S2)c(=O)[nH]c1=O (stereo not drawn) ... 213 to 215 °C
CC(C)COc1ccccc1Nc1ncc(C(=O)O)c(=O)[nH]1 ... 213 to 215 °C

GET /value?item= "C=CCNC(=O)[C@H]1N(C(=O)[C@@H](O)[C@H](Cc2ccccc2)NC(=O)c2cccc(O)c2C)CSC1(C)C" &field=melting point returns 173 to 175 °C

GET /value?item= "CN(N=C(Cl)c1c(F)cccc1F)S(=O)(=O)c1ccccc1" &field=melting point returns 81.5 to 83 °C

GET /value?item= "CN(C)C(=O)c1ccc(C(C)(C)C)c(N)c1" &field=melting point returns 186 to 188 °C

====

In this section we review reported melting point values for a set of compounds.

The following compounds have reported results that may help.
CC1CCCC(NC(CCc2ccccc2)C(=O)O)C(=O)N1CC(=O)O (stereo not given) ... 215 to 217 °C
CC1(C)C(C#N)C1C(=O)O (stereo not given) ... 101 to 106 °C

GET /value?item= "CCOC(=O)c1ccc(NC(=O)C=C(C)c2ccc(Cl)c(Cl)c2)cc1" &field=melting point returns 149 to 150 °C

GET /value?item= "CCOc1nn(-c2c(Cl)cc(Cl)cc2Cl)c(N2C(=O)c3ccccc3C2=O)c1C(=O)c1ccccc1Cl" &field=melting point returns 215 to 216 °C

GET /value?item= CC(N(O)C(N)=O)C1(OCc2nc3ccccc3s2)C=CC(c2ccccc2)=CC1 (stereo not given) &field=melting point returns 190 to 191 °C

GET /value?item= "NCc1cccc2nnsc12" &field=melting point returns 136 to 139 °C

GET /value?item= Nc1ccc(CC(NC(=O)CCCCCCCCCCNC(=O)C(c2ccccc2)c2ccccc2)c2ccccc2)cc1 (stereo not given) &field=melting point returns 96 to 102 °C

====

endpoint.name: melting point

The following molecules have reported results that may help.
O=C(NCCN1CCCC1)c1ccc(OCc2ccc(-c3ccccc3)cc2)cc1 ... 173 to 175 °C
O=C1CCC(c2ccc([N+](=O)[O-])cc2)CC1 ... 160 to 162 °C
CCC(CC)(CC)C(=O)O[C@H]1CCC=C2C=C[C@H](C)[C@H](CC[C@@H]3C[C@@H](O)CC(=O)O3)[C@H]21 ... 65 to 68 °C
CCOC(=O)C1=C(C)N(C(C)=O)C(c2csc(C)n2)=NC1c1cccc(F)c1 (stereo unspecified) ... 127 to 130 °C

GET /value?item= CC1(CCN)OCCc2c1[nH]c1ccccc21 (stereo unspecified) &field=melting point returns 80 to 84 °C

GET /value?item= "CCOP(=O)(/C=C/c1cn(-c2ccccc2)nc1OCc1ccc(OCc2nc(-c3ccccc3)sc2C)c(OC)c1)OCC" &field=melting point returns 110 to 111 °C

GET /value?item= "CCCCc1csc2ccc3[nH]c4c(c3c12)CN(Cc1ccccc1)CC4" &field=melting point returns 127 to 128 °C

====

In this section we review reported melting point values for a set of compounds.

GET /value?item= "O=c1[nH][nH]c(=O)n1CCOc1ccccc1" &field=melting point returns 187 to 189 °C

GET /value?item= CN=C1SC2Cc3ccc(S(C)(=O)=O)cc3C2(O)N1C (stereo not given) &field=melting point returns 158 °C

GET /value?item= "O=C1c2ccccc2-c2ccc(-c3nc(CCl)co3)cc21" &field=melting point returns 188 to 189 °C

GET /value?item= "COC(=O)CC[C@@H](C(N)=O)N1Cc2c(OCc3ccc(CN4CCOCC4)cc3)cccc2C1=O" &field=melting point returns 66 to 68 °C

GET /value?item= "COc1cc(OC)nc(Sc2c(NC(=O)C(F)(F)F)nc(C)n2C)n1" &field=melting point returns 160 to 162 °C

====

endpoint.name: melting point

The following molecules have reported results that may help.
CSCc1ccc2ncnc(Nc3cccc(C)c3)c2c1 ... 134 to 136 °C
Cc1nc(C(=O)N(C)C)c2n1-c1ccc(Cl)cc1C(c1ccccc1Cl)=NC2 ... 225 to 230 °C
CCCc1c(OCc2cccc(C=CC(=O)O)c2)ccc(C(C)=O)c1O ... 195 to 196 °C

GET /value?item= "CCSc1ccc(/C=C(\NC(=O)c2ccc(OCC(C)C)cc2)C(=O)NCCO)cc1" &field=melting point returns 153 to 155 °C

GET /value?item= CC(=O)c1c(O)cccc1OCC(O)COc1ccc(Cl)cc1 (stereo not given) &field=melting point returns 112 to 114 °C

GET /value?item= "COC(=O)Cc1cc([N+](=O)[O-])ccc1OC" &field=melting point returns 92 °C

GET /value?item= "COc1cc(F)ccc1C(C)(C)CC#N" &field=melting point returns 80 to 83 °C

GET /value?item= "CN1C(=O)CC[C@]2(C)c3ccc(Sc4ccc5cccc([N+](=O)[O-])c5n4)cc3CC[C@@H]12" &field=melting point returns 199 to 200 °C

GET /value?item= "CCCCNc1c(C(=O)OCC)c(C)nc2nc(C)c(C)nc12" &field=melting point returns 97 to 99 °C

GET /value?item= "CCOC(=O)ON(C(=O)NC)c1cc(Cl)ccc1Cl" &field=melting point returns 130 to 132 °C

====

In this section we review reported melting point values for a set of molecules.

The following molecules have reported results that may help.
COc1ccc2c(c1)C(=O)C1(O)c3ccc(C(C)C)cc3OC21O (stereo not given) ... 98 to 102 °C
COC(=O)c1ccn2c1C(C(=O)OC)CC2 (stereo not given) ... 70 to 71 °C
CCOC(=O)C(NC(=O)Nc1ccccc1Cl)(c1nc(OC)cc(OC)n1)C(C)C (stereo not given) ... 84 to 87 °C
Cc1nc(-c2cn(CCc3ccc(F)cc3)nn2)sc1C(=O)NCc1cccnc1 ... 149 to 150 °C
COC(=O)N1CCC(c2n[nH]c3cc(Cl)ccc23)CC1 ... 132 to 134 °C
Cn1ncc(C(=O)N2CCCC2)c1C(=O)Nc1ccc2nc(-c3ccccc3)nn2c1 ... 210 °C

GET /value?item= Clc1ccc(C2(CBr)OCC(COc3ccc4ccccc4c3)O2)c(Cl)c1 (stereo not given) &field=melting point returns 118 °C

GET /value?item= "CC(C)CNc1c(N)c2nnnn2c2ccccc12" &field=melting point returns 148 to 150 °C

GET /value?item= "CCOC(=O)C(C(=O)OCC)c1cccc(C(=O)c2ccccc2)c1[N+](=O)[O-]" &field=melting point returns 130 to 131 °C

GET /value?item= "NC(=O)Nc1ccc(-c2nnc(CSCCOc3ccccc3)o2)cc1" &field=melting point returns > 220 °C
